# assay.system: AT2 receptor (Homo sapiens (Human))
# Sequence (P50052 whole entry, species assumed): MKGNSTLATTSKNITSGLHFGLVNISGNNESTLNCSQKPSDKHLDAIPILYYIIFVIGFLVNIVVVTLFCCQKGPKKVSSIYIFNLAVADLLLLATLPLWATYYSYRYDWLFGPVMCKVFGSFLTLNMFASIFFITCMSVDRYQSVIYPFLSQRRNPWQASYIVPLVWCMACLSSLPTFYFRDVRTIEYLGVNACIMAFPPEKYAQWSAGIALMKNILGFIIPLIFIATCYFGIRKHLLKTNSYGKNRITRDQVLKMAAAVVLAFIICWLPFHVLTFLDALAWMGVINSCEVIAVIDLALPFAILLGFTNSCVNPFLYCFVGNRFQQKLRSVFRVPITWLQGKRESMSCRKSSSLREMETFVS
pIC50: −log10 of the molar value.
Rule: pIC50 of 7 or more gives 1; anything lower gives -1.

compound: Cc1cc(N2CCN(C(=O)C(c3ccccc3)c3ccccc3)[C@H](C(=O)O)C2)n(Cc2ccccc2)n1 [Compound 16]
cat: 1

compound: O=C(O)[C@@H]1CN(c2ccccc2)CCN1C(=O)C(c1ccccc1)c1ccccc1 [Compound 4]
cat: -1

compound: O=C(O)[C@@H]1CN(Cc2ccccc2)CCN1C(=O)C(c1ccccc1)c1ccccc1 [Compound 5]
cat: -1

Just for reference, patent US9708275B2 is where these values come from.
